The entries below come with measured MIC A. baumannii values attached.
- Tested on: A. baumannii
- Assay type: cell-based, Acinetobacter baumannii
quantity-kind: MIC A. baumannii (µM)

>>> observed_value("Ac-RPMTWRRFLAKYGL-NH2 [compound 200]")
50.0
>>> observed_value("Ac-RPMTWRRFLAKRGL-NH2 [compound 203]")
400.0

----------
- Test system: K. pneumoniae
- Assay type: cell-based, Klebsiella pneumoniae
- assay-context: Table 8
The entries below come with measured MIC K. pneumoniae values attached.
quantity-kind: MIC K. pneumoniae

>>> observed_value("Ac-YPMTARRFLEKWGL-NH2 [compound 44]")
">800 µM"
>>> observed_value("Ac-RPMTARRFLAKRGL-NH2 [compound 210]")
">400.0 µM"
>>> observed_value("Ac-RPMTARRWLEKRGL-NH2 [compound 202]")
">400.0 µM"
